- Test system: Plutella xylostella
- protocolSummary: Toxicity in Plutella xylostella larvae after 48 hrs
- Type: organism-based
- assaySetup: in vivo
Entries and their LD50 values follow.

compound: C/C=C(\C)C(=O)O[C@H]1C[C@@H](OC(C)=O)[C@@]2(C(=O)OC)CO[C@H]3[C@@H](O)[C@@](C)([C@]45O[C@@]4(C)[C@H]4C[C@@H]5O[C@@H]5OC=C[C@@]54O)[C@@H]4[C@@H](O)OC[C@@]14[C@@H]32
LD50 [µg/g]: 4.2

compound: COC(=O)[C@H]1OC[C@]23[C@@H]1[C@](C)([C@]14O[C@@]1(C)[C@H]1C[C@@H]4O[C@@H]4OC=C[C@@]41O)[C@H](O)[C@@H]1OC[C@](C(=O)OC)([C@H](O)C[C@@H]2O)[C@H]13 [AZADIRACHTOL]
LD50 [µg/g]: 3.28

compound: C/C=C(\C)C(=O)O[C@H]1C[C@@H](OC(C)=O)[C@@]2(C(=O)OC)CO[C@H]3[C@@H](O)[C@@](C)([C@]45O[C@@]4(C)[C@@H]4C[C@H]5O[C@@H]5OC=C[C@@]54O)[C@H]4[C@]1(CO[C@]4(O)C(=O)OC)[C@@H]32 [AZADIRACHTIN A]
LD50 [µg/g]: 4.12
